- testSystem: T1, CEACAM1 antigen (Sino Biological, Inc.) (UniProt P13688 35-428)
- T1 construct: Bought antigen coated on the ELISA plate; construct not described; also called CEACAM1 (CD66a) antigen; CD66a
- T1 sequence (looked up): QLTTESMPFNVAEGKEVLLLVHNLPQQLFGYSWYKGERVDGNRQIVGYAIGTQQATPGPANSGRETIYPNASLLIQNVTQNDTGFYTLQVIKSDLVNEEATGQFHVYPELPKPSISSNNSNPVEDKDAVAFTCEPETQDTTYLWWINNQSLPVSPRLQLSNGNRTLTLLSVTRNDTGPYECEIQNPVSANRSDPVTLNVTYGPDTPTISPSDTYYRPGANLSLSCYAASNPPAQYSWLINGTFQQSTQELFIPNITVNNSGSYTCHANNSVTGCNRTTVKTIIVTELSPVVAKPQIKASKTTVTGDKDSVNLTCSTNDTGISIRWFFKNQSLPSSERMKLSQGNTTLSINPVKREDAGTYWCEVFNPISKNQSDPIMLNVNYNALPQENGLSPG
- assayComment: ELISA, coated CEACAM1 100 ng/well, antibody 0.51 ng/ml
Examples of binders with documented OD 450 nm follow.
Please state the figure in OD; there is no need to write the unit.

binder="anti-CD66c chimeric antibody 8F5 (antibody, human IgG1, V domains shown, also called chimeric 8F5 antibody; chi 8F5) VH: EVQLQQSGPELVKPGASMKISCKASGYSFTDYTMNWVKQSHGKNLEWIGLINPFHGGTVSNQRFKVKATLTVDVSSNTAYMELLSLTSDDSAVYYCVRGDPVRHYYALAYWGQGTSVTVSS VL: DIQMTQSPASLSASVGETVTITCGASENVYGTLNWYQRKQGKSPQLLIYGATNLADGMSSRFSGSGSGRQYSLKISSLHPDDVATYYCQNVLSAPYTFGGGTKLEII" numericreadout=0.1

Now consider a different binder.
The binder listed as recombinant humanized anti-CD66c antibody Protein ID 2938 (Vk5 + VH7) (antibody, human IgG1, V domains shown, also called hu 2938) VH: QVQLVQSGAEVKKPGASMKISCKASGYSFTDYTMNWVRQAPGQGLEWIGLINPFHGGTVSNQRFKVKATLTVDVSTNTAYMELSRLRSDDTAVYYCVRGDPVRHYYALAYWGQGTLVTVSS VL: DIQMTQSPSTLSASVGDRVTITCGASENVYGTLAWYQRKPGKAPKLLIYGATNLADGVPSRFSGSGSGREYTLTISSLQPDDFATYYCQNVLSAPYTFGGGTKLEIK shows OD 450 nm equal to 0.05
